pIC50 values, listed per item
- System: HAL-01;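 note: growth inhibition of human HAL-01 cells, read out with a cell viability assay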
- ASSAY: cells
- Format: functional, cell-based
- CONDITION_DETAILS: Homo sapiens
- Description: SANGER: Inhibition of human HAL-01 cell growth in a cell viability assay.
Note on units: pIC50 is unitless, being -log10 of a concentration expressed in mol/L.

What pIC50 value was documented for this molecule, COc1cc(Nc2c(C#N)cnc3cc(OCCCN4CCN(C)CC4)c(OC)cc23)c(Cl)cc1Cl ? 5.96

Entry CC(C)=CC[C@@H](O)C1=CC(=O)c2c(O)ccc(O)c2C1=O please 6.71

====

Each entry below carries its recorded IC50.
- Tested on: NCI-H2347
- ASSAY: cells
- Format: functional, cell-based
- CONDITION_DETAILS: Homo sapiens
- Description: SANGER: Inhibition of human NCI-H2347 cell growth in a cell viability assay.

In the examples that follow, each entry is paired with its recorded IC50.
MOLECULE	TARGET_ENTITY	IC50
CC[C@]1(O)C[C@@H]2CN(CCc3c([nH]c4ccccc34)[C@@](C(=O)OC)(c3cc4c(cc3OC)N(C)[C@H]3[C@@](O)(C(=O)OC)[C@H](OC(C)=O)[C@]5(CC)C=CCN6CC[C@]43[C@@H]65)C2)C1	NCI-H2347	> 100 nM
C[C@]12O[C@H](C[C@]1(O)CO)n1c3ccccc3c3c4c(c5c6ccccc6n2c5c31)CNC4=O	NCI-H2347	> 2000 nM

Need IC50 of Cn1cc(/C=C2\C(=O)Nc3cccnc32)c2ccccc21 , thanks. > 2000 nM

Again, but for CC(O)(CS(=O)(=O)c1ccc(F)cc1)C(=O)Nc1ccc(C#N)c(C(F)(F)F)c1 (stereo unspecified) [BICALUTAMIDE] > 1020 nM

CCNC(=O)c1noc(-c2cc(C(C)C)c(O)cc2O)c1-c1ccc(CN2CCOCC2)cc1 ? 80.3 nM

How about this molecule: CO[C@@]12[C@H](COC(N)=O)C3=C(C(=O)C(C)=C(N)C3=O)N1C[C@@H]1N[C@@H]12 850 nM

Continue with C[C@]1(c2nc3c(C(N)=O)cccc3[nH]2)CCCN1 > 5000 nM

Also need Fc1cc(-c2cc[nH]/c(=N/c3ccc(-n4cnc(N5CCOCC5)n4)cc3)n2)cc(N2CCOCC2)c1 , thanks. 1020 nM

How about this molecule: CC(C)=CC[C@@H](O)C1=CC(=O)c2c(O)ccc(O)c2C1=O 968 nM

Same read-out for N#C/C(=C1/Nc2ccccc2S1)c1ccnc(NCCc2cccnc2)n1 ? > 8000 nM

Then this molecule: CC(=O)c1c(C)c2cnc(Nc3ccc(N4CCNCC4)cn3)nc2n(C2CCCC2)c1=O > 4000 nM
